Origin of values: BigSolDB 2.1

# experimental conditions: in water, 308.15 K
endpoint name: solubility (mole fraction)
Could you keep your reply to the number by itself?

For the molecule O=Cc1ccc(O)c(Br)c1 , what solubility (mole fraction) is on record? 0.00025

----------
# experimental conditions: in DMSO, 308.15 K
endpoint name: solubility (mole fraction)
Could you keep your reply to the number by itself?

For the molecule O=Cc1ccc(O)c(Br)c1 , what solubility (mole fraction) is on record? 0.0278

----------
# experimental conditions: in water, 318.15 K
endpoint name: solubility (mole fraction)
Could you keep your reply to the number by itself?

For the compound O=Cc1ccc(O)c(Br)c1 , what solubility (mole fraction) is on record? 0.000395
